TEST_TARGET: CDK7: cyclin H and MNAT1 (Homo sapiens)
Construct: purchased Invitrogen
Sequence (P50613 whole entry): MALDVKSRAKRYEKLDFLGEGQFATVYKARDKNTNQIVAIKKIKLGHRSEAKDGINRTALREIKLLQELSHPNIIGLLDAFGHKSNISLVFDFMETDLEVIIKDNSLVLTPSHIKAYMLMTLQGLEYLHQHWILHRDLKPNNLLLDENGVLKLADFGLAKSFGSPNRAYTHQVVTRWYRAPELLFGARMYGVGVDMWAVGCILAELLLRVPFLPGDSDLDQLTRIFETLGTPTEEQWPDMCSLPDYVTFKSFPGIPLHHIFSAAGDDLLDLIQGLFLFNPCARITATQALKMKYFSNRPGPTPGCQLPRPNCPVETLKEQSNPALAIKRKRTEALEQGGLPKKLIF
Sequence (P51946 whole entry partner): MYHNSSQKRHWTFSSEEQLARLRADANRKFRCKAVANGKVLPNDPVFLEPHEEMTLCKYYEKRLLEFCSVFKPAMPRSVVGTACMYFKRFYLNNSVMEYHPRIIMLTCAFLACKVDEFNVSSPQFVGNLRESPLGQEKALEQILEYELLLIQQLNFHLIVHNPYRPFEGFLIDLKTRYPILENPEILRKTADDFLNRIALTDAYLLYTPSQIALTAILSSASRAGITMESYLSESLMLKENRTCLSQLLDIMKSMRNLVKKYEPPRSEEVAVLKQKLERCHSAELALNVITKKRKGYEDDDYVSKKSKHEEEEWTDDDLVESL
Sequence (P51948 whole entry partner): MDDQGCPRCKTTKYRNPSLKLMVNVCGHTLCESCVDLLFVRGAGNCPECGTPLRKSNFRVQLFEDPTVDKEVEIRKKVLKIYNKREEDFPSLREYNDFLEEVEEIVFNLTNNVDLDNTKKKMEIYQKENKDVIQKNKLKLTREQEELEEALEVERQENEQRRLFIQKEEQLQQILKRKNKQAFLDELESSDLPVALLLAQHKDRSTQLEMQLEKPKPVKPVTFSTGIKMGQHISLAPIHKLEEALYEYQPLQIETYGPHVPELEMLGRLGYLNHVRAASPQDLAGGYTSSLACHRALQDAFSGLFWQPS
EXPERIMENT_DESCRIPTION: Invitrogen CDK7 assay (kinase inhibition)
Format: biochemical
TEST_CONDITIONS: Table 1, compounds of the disclosure; co-factors cyclin H and MNAT1; read-out: IC50 against CDK7
PARAMETER_MEASURED: IC50

// lookup IC50 for C=CC(=O)Nc1ccc(C(=O)Nc2nn(C(F)F)c3c2CN(C(=O)N[C@H](CN(C)C)c2ccccc2)C3(C)C)cc1
< 100 nM

// lookup IC50 for C=CC(=O)Nc1ccc(C(=O)Nc2nn(C)c3c2CN(C(=O)N[C@H](CN(C)C)c2ccccc2)C3(C)C)cc1
< 100 nM

// lookup IC50 for C=CC(=O)Nc1ccc(C(=O)Nc2nn(C)c3c2CN(C(=O)N[C@H](CN(C)C)c2ccccc2)C3(C)C)nc1
100 to 1000 nM

// lookup IC50 for C=CC(=O)Nc1ccc(C(=O)Nc2nn(C(F)F)c3c2CN(C(=O)N[C@H](CN(C)C)c2ccccc2)C3(C)C)nc1
< 100 nM
